protocol.summary: MCF7 Cancer Cell Toxicity qHTS against the NCATS CANVASS Library (AID 1347369)
assay.setup: MCF7 viability, ATP luminescence (CellTiter-Glo), 72 h; series mostly up to 46 µM
Records with an inconclusive call do not appear. Active and inactive are the calls of the source. The call rests on the fitted dose curve; in most records, active means well fitted cell-killing curve with a large enough effect; inconclusive means small, poorly fitted or top-dose-only effect; inactive means no such curve, though single readings can be large or run the other way. Numbered stars: 1 amine (or outer) side, 2 acyl side, 3 side chain; on linkers, the order of the positions; unused ones are H or OH. Square brackets hold non-standard residues; d marks the D form. Peptide text beside a SMILES is read from it. ξ: configuration not given here. X1 = CCCCCCCCCC(=O)[C@H](C(=O)[*:2])[C@@H]1CNC(=O)[C@@H](N[*:1])CS1; X4 = O=C(C1CC2(c3ccc(O)cc3)c3ccccc3NC2N1[*:1])[*:2]; ξW = NC(Cc1c[nH]c2ccccc12)C(=O)O; ξY = NC(Cc1ccc(O)cc1)C(=O)O
Possible outcomes: TRUE = active, FALSE = inactive

molecule="O=c1cc(-c2ccc(O)cc2)oc2c([C@@H]3OC(CO)[C@H](O)[C@@H](O)[C@H]3O)c(O)cc(O)c12 (some centres not stated)" assigned_category=FALSE
molecule=C/C1=C/[C@@H](C)[C@H](O)C/C=C/CC/C=C/C(=O)O[C@@H]1[C@H](C)C(=O)/C=C/CC1CC(=O)NC(=O)C1 assigned_category=FALSE
molecule=CCCCCC[C@H](CCCCC[C@@H](O)C(N)=O)OC(=O)[C@@H]1CC=CN1C(=O)c1ccccc1O assigned_category=FALSE
molecule=C1=C2CCCN[C@@H]2[C@@H]2CCN3CCCC[C@@H]3[C@H](C1)C2 assigned_category=FALSE
molecule="CCCCCCCCCC(=O)[C@@H]1C(=O)N[C@@H](CC(C)C)C(=O)N[C@H](C)C(=O)N2CCC[C@H]2C(=O)N[C@@H](C(C)C)C(=O)N[C@H]2CS[C@H]1CNC2=O (cyclo(L[dA]PV[X1]))" assigned_category=FALSE
molecule="C/C(=C\\[C@H](C)C(=O)CCCC1CC(=O)NC(=O)C1)C(O)[C@@H](C)[C@H](O)C/C=C/CC/C=C/C(=O)O (some centres not stated)" assigned_category=FALSE
molecule="C=C1C[C@@]23C=CC(=O)[C@@](C)(CCC(=O)Nc4c(O)ccc(C(=O)O)c4O)C2C[C@@H]1C(O)C3 (some centres not stated)" assigned_category=FALSE
molecule="CC12C[C@]3(O)O[C@@H](O1)[C@]1(COC(=O)c4ccccc4)[C@@H]3CC21OC1OC(CO)C(O)C(O)C1O (some centres not stated)" assigned_category=FALSE
molecule=C=C1C(=O)C[C@H]2C[C@@H]1[C@]2(C)CCC=C(C)C assigned_category=FALSE
molecule="CC(=O)O[C@H]1CC[C@@]2(C)C(CC[C@]3(C)C2CC=C2C4CC(C)(C)CC[C@]4(C)CC[C@]23C)C1(C)C (some centres not stated)" assigned_category=FALSE
molecule="C=C1C[C@@]23C=CC(=O)[C@@](C)(CCC(=O)Nc4c(O)ccc(C(=O)O)c4O)C2C[C@@H]1CC3O (some centres not stated)" assigned_category=FALSE
molecule=C=C[C@]1(C)CC[C@@H]([C@H](C)C(=O)/C=C/C(C)C)O1 assigned_category=FALSE
molecule=C[C@@H]1O[C@H](c2c(O)cc(O)c3c(=O)cc(-c4ccc(O)cc4)oc23)[C@H](O)[C@H](O)[C@H]1O assigned_category=FALSE
molecule="CC1C(=O)C23CCC1C[C@]21O[C@@H]2C(C)(C)C=CC(=O)[C@@]23COC1=O (some centres not stated)" assigned_category=FALSE
molecule=Cc1cc(O)cc2oc(C[C@H](C)O)cc(=O)c12 assigned_category=FALSE
molecule=C[C@@H]1C(=O)[C@]23CC[C@H]1C[C@]21O[C@H]2C(C)(C)C=CC(=O)[C@]23COC1=O assigned_category=FALSE
molecule="CC1(C)CCC[C@]2(C)[C@@H]1CC[C@@]13C[C@@H](CC[C@H]12)C(C)(O)C3 (some centres not stated)" assigned_category=FALSE
molecule=CC1=CC[C@@]2(C[C@@H]1O)[C@@H](C(=O)O)CC[C@H]2C(C)C assigned_category=FALSE
molecule=C=C[C@@]1(C)CC[C@@H]([C@H](C)C(=O)/C=C/C(C)C)O1 assigned_category=FALSE
molecule=C[C@@]12CCC[C@@](C)(C(=O)O)[C@H]1C[C@@H](O)[C@]13C[C@H]4C[C@H](O[C@@]4(C)C1)[C@@H]23 assigned_category=FALSE
molecule="CN1C(=O)C2C(N=CN2C)N(C)C1=O (configuration not stated)" assigned_category=FALSE
molecule=COc1cc(/C=C/C(=O)O)ccc1O assigned_category=FALSE
molecule="CC[C@H](C)[C@H](NC(=O)C(Cc1ccc(O)cc1)NC(=O)C(Cc1c[nH]c2ccccc12)NC(=O)[C@H](C)N)C(=O)N1C(C(=O)NC(Cc2ccc(O)cc2)C(=O)O)CC2(c3ccc(O)cc3)c3ccccc3NC12 (some centres not stated) (H-A[ξW][ξY]I[X4][ξY]-OH)" assigned_category=FALSE
molecule=O=C(O)Cc1c[nH]c2ccccc12 assigned_category=FALSE
molecule=CN1CCc2cc3c(c4c2[C@H]1[C@@H](O)c1ccccc1-4)OCO3 assigned_category=TRUE
molecule=CC1(C)[C@H](Br)CC[C@]23C[C@]4(C)C(=O)CC12C[C@H]34 assigned_category=FALSE
molecule=CC(=O)[C@@H]1[C@@H](O)C[C@H]2[C@]3(C)CC[C@H]4C(C)(C)CCC[C@]4(CO)[C@H]3C[C@H]3OC(=O)[C@@H]1[C@@]32C assigned_category=FALSE
molecule=CCC1=C2CCCN3C(=O)O[C@H]([C@H]1OC(C)=O)[C@H]23 assigned_category=FALSE
molecule="CC1C(=O)C23CCC1C[C@@]21O[C@H]2C(C)(C)C=CC(=O)[C@@]23COC1=O (some centres not stated)" assigned_category=FALSE
molecule="CO[C@@H]1[C@H](O)[C@@H](C)O[C@@H](OC[C@@H]2C(C)OC(=O)/C=C/[C@H](C)C(O[C@@H]3O[C@H](C)CC4(OC(=O)O[C@@H]4C)C3O)[C@@H](C)CC(C)C(=O)CC[C@H]3OC23)[C@@H]1OC (some centres not stated)" assigned_category=FALSE
molecule="C/C=C/C=C/C1(O)C2C=C3C(=O)CC45C(=O)C(O)=C(C)C(=O)C4C1C1(C(=O)C(O)=C(C)C(=O)C351)C2C (configuration not stated)" assigned_category=FALSE
molecule=C[C@@]12C[C@@H](C[C@H]3C(=O)O[C@@H](c4ccoc4)[C@H](OC(=O)c4ccccc4)[C@@H]31)OC2=O assigned_category=FALSE

---

system.under.test: DNA dC->dU-editing enzyme APOBEC-3G (Homo sapiens) (UniProt Q9HC16)
Sequence (Q9HC16 whole entry, looked up): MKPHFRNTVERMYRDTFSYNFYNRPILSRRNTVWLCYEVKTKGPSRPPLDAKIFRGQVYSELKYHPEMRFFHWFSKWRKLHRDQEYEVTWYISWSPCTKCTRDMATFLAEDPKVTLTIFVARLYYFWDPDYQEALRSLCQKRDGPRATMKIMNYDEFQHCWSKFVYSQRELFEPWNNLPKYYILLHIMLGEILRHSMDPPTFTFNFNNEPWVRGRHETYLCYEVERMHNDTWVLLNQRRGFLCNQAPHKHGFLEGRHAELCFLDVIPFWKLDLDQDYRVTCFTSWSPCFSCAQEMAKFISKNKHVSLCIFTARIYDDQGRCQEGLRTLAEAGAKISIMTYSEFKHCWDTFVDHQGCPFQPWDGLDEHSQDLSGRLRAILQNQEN
protocol.summary: qHTS for inhibitors of Vif-A3G interactions: Validation (AID 588379)
assay.setup: Vif-A3G protein interaction assay; series mostly up to 46.1 µM
The source made the active and inactive calls. Calls come from the whole dose curve; as a rule, active = well fitted inhibition curve with a large enough effect; inconclusive = small, poorly fitted or top-dose-only effect; inactive = flat fitted curve, though single readings scatter.
measured.attribute: outcome

compound=O=C(NCCCN1CCCCCC1)[C@@H](c1ccccc1)C1CCCCC1 reported_value=inactive
compound=N#C[C@H](Cc1ccc(O)cc1)c1ccc(O)cc1 reported_value=inactive
compound=N[C@@H](Cn1cc(F)c(=O)[nH]c1=O)C(=O)O reported_value=inactive
compound=O=C(O)Cc1cc2ccccc2nc1C(=O)O reported_value=inactive
compound=N[C@H](Cc1cnc[nH]1)C(=O)O reported_value=inactive
compound=C[C@@H]1CCN=C(N)S1 reported_value=inactive
compound=N[C@@H](Cn1cc(I)c(=O)n(Cc2ccc(C(=O)O)cc2)c1=O)C(=O)O reported_value=inactive
compound=CCCCNC(=O)[C@@H]1Cc2ccccc2N1C(=O)[C@H](N)CC reported_value=inactive
compound=CCCn1c(=O)[nH]c2nc(-c3ccc(S(=O)(=O)O)cc3)[nH]c2c1=O reported_value=inactive
compound=NCCCCCCCCCCNS(=O)(=O)c1cccc2c(Cl)cccc12 reported_value=inactive
compound="C[C@@]12CC[C@@H]3c4ccc(O)cc4C[C@H](CCCCCCCCCS(=O)CCCC(F)(F)C(F)(F)F)[C@H]3[C@@H]1CC[C@@H]2O (stereo partly specified)" reported_value=inactive

---

protocol.summary: U-118MG Cancer Cell Toxicity qHTS against the NCATS CANVASS Library (AID 1347351)
assay.setup: U-118MG viability, CellTiter-Glo luminescence, 72 h; series mostly up to 38.3 µM
Inconclusive results are not listed. Activity calls are given as the source filed them. Calls follow the shape of the dose curve; as a rule, active = well fitted cell-killing curve with a large enough effect; inconclusive = small, poorly fitted or top-dose-only effect; inactive = flat fitted curve, though single readings scatter.
Outcome codes: y (active), n (inactive)

molecule=O=c1cc(-c2ccc(O)c(O[C@@H]3O[C@H](CO)[C@@H](O)[C@H](O)[C@H]3O)c2)oc2cc(O[C@@H]3O[C@H](CO)[C@@H](O)[C@H](O)[C@H]3O)cc(O)c12 assigned_category=n
molecule=COc1cc(O)c2c3c(c(O)cc(C)c13)C(=O)OC2 assigned_category=n
molecule="COC1C(O)C(OC(N)=O)C(Oc2ccc3c(O)c(NC(=O)c4ccc(O)c(CC=C(C)C)c4)c(=O)oc3c2C)OC1(C)C (centres undefined)" assigned_category=n
molecule="O=C(O)CC1OC(=O)c2c(O)cccc21 (centres undefined)" assigned_category=n
molecule=C[C@H]1C[C@@H]([C@@H]2CC[C@]34O[C@H](CC[C@@]35C[C@H](C)C(=O)O5)CN24)OC1=O assigned_category=n
molecule=CC1(C)C=Cc2c(ccc3c2OC[C@@H](c2ccc(O)cc2O)C3)O1 assigned_category=n
molecule="Oc1ccc(/C=C2/c3cc(O)cc(O)c3C(c3ccc(O)cc3)[C@H]2c2cc(O)cc(O)c2)cc1 (some centres undefined)" assigned_category=n
molecule=C=C[C@@]1(C)CC[C@@H]([C@H](C)C(=O)/C=C/C(C)C)O1 assigned_category=n
molecule=C=C(C)CC[C@H](Cc1c(O)cc(O)c2c1O[C@H](c1ccc(O)cc1O)CC2=O)C(=C)C assigned_category=n
molecule=C[C@@H]1C(=O)[C@]23CC[C@H]1C[C@]21O[C@H]2C(C)(C)C=CC(=O)[C@]23COC1=O assigned_category=n
molecule="Oc1ccc([C@H]2Oc3ccc(/C=C/c4cc(O)cc(O)c4)cc3C2c2cc(O)cc(O)c2)cc1 (some centres undefined)" assigned_category=n
molecule=Cc1cc(O)cc2oc(C[C@H](C)O)cc(=O)c12 assigned_category=n
molecule="Oc1ccc(C2c3c(O)cc(O)cc3[C@@H]3C(c4ccc(O)cc4)c4c(O)cc(O)cc4[C@H]23)cc1 (some centres undefined)" assigned_category=n
molecule=C=C1C(=O)O[C@H]2[C@H]1CC/C(CO)=C\CC[C@@]1(C)O[C@@H]21 assigned_category=y
molecule=CC1(C)[C@H](Br)CC[C@]23C[C@]4(C)C(=O)CC12C[C@H]34 assigned_category=n
molecule=CC1=CC[C@@]2(C[C@@H]1O)[C@@H](C(=O)O)CC[C@H]2C(C)C assigned_category=n
molecule="C[C@]12CC[C@]3(C1)[C@H](CC2=O)CC(OC(=O)c1ccccc1)[C@H]1[C@@](CO)(C(=O)O)CCC[C@@]13C (some centres undefined)" assigned_category=n
molecule=C/C=C1/CC[C@@H]2c3[nH]c4ccccc4c3CCN2C1 assigned_category=n
molecule=OCc1ccc2ocnc2c1 assigned_category=n
